Reference source: patent US20170066836A1

# ASSAY SYSTEM: T1, recombinant Glypican-1 (R&D systems 4519-GP-050) (Homo sapiens (Human), UniProt P35052 24-530)
# T1 construct: Bought protein
# T1 sequence: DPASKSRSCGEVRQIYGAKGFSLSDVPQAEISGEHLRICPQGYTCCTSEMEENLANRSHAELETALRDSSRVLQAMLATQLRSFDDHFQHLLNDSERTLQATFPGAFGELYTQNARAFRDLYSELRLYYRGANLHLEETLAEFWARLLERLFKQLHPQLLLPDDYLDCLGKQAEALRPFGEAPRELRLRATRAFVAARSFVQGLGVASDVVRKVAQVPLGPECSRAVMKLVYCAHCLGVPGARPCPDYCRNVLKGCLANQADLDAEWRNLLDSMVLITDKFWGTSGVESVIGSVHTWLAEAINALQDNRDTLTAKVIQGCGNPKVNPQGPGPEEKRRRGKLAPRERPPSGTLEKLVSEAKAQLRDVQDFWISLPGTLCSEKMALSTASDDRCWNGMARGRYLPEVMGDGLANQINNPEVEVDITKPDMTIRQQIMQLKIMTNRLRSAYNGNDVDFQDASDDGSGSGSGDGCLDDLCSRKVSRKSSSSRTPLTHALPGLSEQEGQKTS
# PROTOCOL NOTES: Biacore 3000 (SPR): antibody captured on rabbit anti-mouse IgG on a CM5 chip, recombinant Glypican-1 added at various concentrations; BIAevaluation 4.1
// values below are reported koff
Enter your answer as a number in s⁻¹; do not include the unit.

BINDER: anti-GPC-1 antibody 2-63 (antibody, V domains shown, detection was with anti-mouse IgG and the control was mouse IgG2a; also called #18; clone 2-63) VH: AVTLDESGGGLQTPGGTLSLVCKASGFDFSSVNMFWVRQAPGKGLEFVAGIDNDATFTLYGSAVKGRASISRDNGQSTVRLQLNNLRAEDTGTYYCAKTLCSTTWGCGAYSAGDIDAWGHGTEVTVST VL: ALTQPSSVSANPGETVKITCSGGGSSGYGYYGWYQQKSPGSAPVTVIYNNNKRPTDIPSRFSGALSGSTATLTITGVQVEDEAVYYCGSRDNTYVGIFGAGTTLTV
koff (s⁻¹): 0.000848
//
BINDER: anti-GPC-1 antibody 1-12 (antibody, V domains shown, it was captured and detected with anti-mouse IgG and the control was mouse IgG2a; also called #4; clone 1-12) VH: AVTLDESGGGLQTPGRALSLVCKASGFTFSRYAMYWVRQAPGKGLEFVAGIGNTGRYTGYGSAVKGRATISRDSGQSTVRLQLNNLRAEDTGNYYCAKSVSPYCCDAADIDAWGHGTEVIVST VL: ALTQPASVSANPGETVKITCSGGSSGYAYGWYQQKSPGSAPVTLLYSNNNRPSDIPSRFSGSKSGSTATLTITGVQAEDEAVYFCGSVDSSSYAGIFGAGTTLTV
koff (s⁻¹): 0.000488
//
BINDER: anti-GPC-1 antibody 2-60 (antibody, V domains shown, detection was with anti-mouse IgG and the control was mouse IgG2a; also called #17; clone 2-60) VH: AVTLDESGGGLQTPGGALSLVCKASGFTYSSYAMGWVRQAPGKGLEFVASISSDGSDTAYGSAVKGRATISRDNRQSTLRLQLNNLRAEDTGTYYCAKSYRCSWNCWDYAAKIDAWGHGTEVTVS VL: VALTQPASVSANPGETVKITCSGSGSYTGSYYYGWYQQKSPGSAPVTVIYNNNKRPSDIPSRFSGSTSGSTATLTITGVQAEDEAVYFCGSYDRSSDSGIFGAGTTLTV
koff (s⁻¹): 0.00105
//
BINDER: anti-GPC-1 antibody 1-57 (antibody, V domains shown, detection was with anti-mouse IgG and the control was mouse IgG2a; also called #10; clone 1-57) VH: AVTLDESGGGLQTPGGGLSLVCKGSGFTLTDRGMHWVRQAPGKGLEWVAAISSSGRFTLYAPAVTGRATISRDNGQSTVRLQLNNLRAEDTGTYYCARGNAGGWWADGGEIDAWGHGTEVIVST VL: ALTQPSSVSANPGETVKITCSGGSGSYGWFQQKSPGSAPVTVIYSNNKRPTDIPSRFSGSKSGSTNTLTITGVQADDEAVYFCGSADSSYIGIFGAGTTLTV
koff (s⁻¹): 0.00213

Here is another binder to look at.
Asked: // koff lookup, key: anti-GPC-1 antibody 1-5 (antibody, V domains shown, detection was with anti-mouse IgG and the control was mouse IgG2a; also called #2; clone 1-5) VH: AVTLDESGGGLQTPGGALSLVCKASGFKFRSYDMYWVRQAPGKGLEYVAGIINTGRETYYGAAVKGRATISRDNGRSTVRLQLNNLRAEDTGTYFCAKGAAWNYAGSIDAWGHGTEVIVST VL: ALTQPASVSANPGETVKITCSGGSGSYGWYQQKSPGSAPVTVIYGDNKRPTDISSRFSGSTSGSTNTLTITGVQAEDEAVYFCGSRDNTYAGIFGAGTTLTV
Given back: 0.000951
